Data provenance: paper PMC6904512

target: EcIMPDH/D243G (Escherichia coli, UniProt P0ADG7, D243G); experiment: biochemical; type: biochemical; details: Ki,app(4HB), EcIMPDH/D243G; 20 nM enzyme, 12 μM IMP, 500 μM NAD+, pH 7.0
Sequence (P0ADG7 whole entry D243G): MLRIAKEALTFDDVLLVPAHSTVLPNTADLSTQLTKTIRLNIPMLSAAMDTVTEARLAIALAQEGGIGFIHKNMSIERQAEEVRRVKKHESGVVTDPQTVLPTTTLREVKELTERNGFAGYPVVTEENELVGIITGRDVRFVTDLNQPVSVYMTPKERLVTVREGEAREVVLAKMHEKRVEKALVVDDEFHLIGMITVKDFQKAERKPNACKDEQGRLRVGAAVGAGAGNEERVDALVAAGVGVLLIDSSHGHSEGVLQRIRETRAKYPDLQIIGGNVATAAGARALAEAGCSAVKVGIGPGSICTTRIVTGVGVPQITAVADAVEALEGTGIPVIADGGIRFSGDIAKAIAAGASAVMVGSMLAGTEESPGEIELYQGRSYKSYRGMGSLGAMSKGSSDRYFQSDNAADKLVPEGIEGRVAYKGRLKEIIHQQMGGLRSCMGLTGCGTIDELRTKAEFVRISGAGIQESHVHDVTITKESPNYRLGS
Result type: pKi
Give bare numbers, as −log10 of the molar value.

API: value(readout=pKi, system=EcIMPDH/D243G (Escherichia coli, UniProt P0ADG7, D243G)) for record O=Cc1ccc(O)cc1 [4-hydroxybenzaldehyde] 2.90

====

molecular target: AbIMPDH (Acinetobacter baumannii, UniProt D0CF46)
Result type: pKi
Answers are plain numbers, as −log10 of the molar value.

Recorded pKi of O=Cc1ccc(O)cc1 [4-hydroxybenzaldehyde] , please. 3.14
